Reference source: ChEMBL document CHEMBL1201862

Listed here: items and their measured GI50.
System: OVCAR-8
procedure-details: NCI tumour cell line growth inhibition, 48 h
The source made the active and inactive calls. Rule as the data show it: active = GI50 up to about 1.1 µM and inactive = higher.

Solved cases below.
O=C(O)c1cc2ccccc2c(/N=N/c2ccc(S(=O)(=O)Nc3ccccn3)cc2)c1O	> 100 µM (inactive)
c1ccc(COc2ccc3[nH]c4c5c6ccccc6nc-5c[nH]c4c3c2)cc1	17.5 µM (inactive)
CNC(=O)CCNC(=O)CCC(=O)OC	> 100 µM (inactive)
Cc1cc2c(cc1C)C(=O)C1(C2)Cc2c(ccc(C)c2C)C1=O (stereo unspecified)	72.8 µM (inactive)
CCC(CO)COC(=O)/C=C/C(=O)OCC(CC)CO (stereo unspecified)	> 76.2 µM (inactive)

Name the reported GI50 value associated with the compound CC(O)c1cc2c(s1)C(=O)c1scc(C(C)O)c1C2=O (stereo unspecified)
0.286 µM (active)

Name the reported GI50 value associated with the compound Cc1cc2c(=O)cc(-c3ccncc3)oc2c(C(=O)O)c1C
> 100 µM (inactive)

Name the reported GI50 value associated with the compound COc1ccc(/C=C/C(C(=O)O)C(=O)O)cc1
> 100 µM (inactive)

Name the reported GI50 value associated with the compound CC(C)=CC1C(C(=O)Oc2ccccc2C(C)C)C1(C)C (stereo unspecified)
31.7 µM (inactive)

Name the reported GI50 value associated with the compound CC1OC(OCC2COC(O)(Oc3c(-c4ccc(O)c(O)c4)oc4cc(O)cc(O)c4c3=O)C(O)C2O)C(O)C(O)C1O (stereo unspecified)
> 100 µM (inactive)

Name the reported GI50 value associated with the compound CO/N=C(/C(=O)Nc1c[n+](CC(=O)[O-])cs1)c1csc(N)n1
> 100 µM (inactive)

* * *

Test system: UO-31
procedure-details: NCI tumour cell line growth inhibition, 48 h
The source made the active and inactive calls. No stated cut-off is given here; in the data, active = GI50 up to about 1.1 µM and inactive = higher.
Your answer must be one of the following: y for active, n for inactive

Past entries and their recorded results:
NC(=O)Oc1ccccc1	n
CS(=O)(=O)C1(Br)S(=O)(=O)OCCOS1(=O)=O	n

// return assay outcome for CC1OC(OC2C(OC(=O)[C@]34CCC(C)(C)C[C@H]3C3=CC[C@@H]5[C@@]6(C)CC[C@H](OC7OC(C(=O)O)C(O)C(O)C7O)C(C)(C)[C@@H]6CC[C@@]5(C)[C@]3(C)C[C@H]4O)OCC(O)C2O)C(O)C(OC2OCC(O)(CO)C2O)C1OC1OCC(O)C(O)C1O (stereo partly drawn)
n

// return assay outcome for C=CCn1c(-c2ccc(-c3cs/c(=N\N=O)n3CC=C)cc2)cs/c1=N\N=O
n

// return assay outcome for O=C(O)C(Oc1nc(S)nc(S)n1)(c1ccc(Cl)cc1)c1ccc(Cl)cc1
n

* * *

Test system: K562
procedure-details: NCI tumour cell line growth inhibition, 48 h
Calls of active or inactive are those of the source. Cut-off read from the data, not from the text of the source: active = GI50 up to about 1.1 µM and inactive = higher.
measured-quantity: GI50

Solved cases below.
O=[N+]([O-])C(C(Cl)=C(Cl)Cl)=C(N1CCCCC1)N1CCCCC1	90.2 µM (inactive)
O=C(NC(Nc1ccc(F)c(Cl)c1)(C(F)(F)F)C(F)(F)F)C(C(F)(F)F)C(F)(F)F	14.5 µM (inactive)
CCC(=N\NC(N)=S)/C(C)=N/O	> 100 µM (inactive)
Nc1ccccc1N/C(=C\C(=O)C(Cl)(Cl)Cl)c1ccccc1	30.2 µM (inactive)
CCOC(=O)C1=C(C)NC2=C(C(=O)N(c3ccccc3)C2c2ccccc2)C1c1ccccc1 (stereo not given)	29.9 µM (inactive)

Name the reported GI50 value associated with the molecule O=CCC1CCCCC1
> 100 µM (inactive)

Name the reported GI50 value associated with the molecule Cc1cc(NS(=O)(=O)c2ccc(NC(=O)c3cccc4c(Nc5ccc(S(N)(=O)=O)cc5)c5ccccc5nc34)cc2)no1
98.2 µM (inactive)

Name the reported GI50 value associated with the molecule Brc1cc2nn(-c3ccccc3)nc2c2nonc12
> 100 µM (inactive)

Name the reported GI50 value associated with the molecule COc1ccc2c(c1)c1c(n2CCN(C)C)-c2cccc(OC)c2CC1
2.02 µM (inactive)

Name the reported GI50 value associated with the molecule OC1[C@H]([C@H]2CCCC[C@@H]2O)CCC[C@@H]1[C@@H]1CCCC[C@H]1O (stereo not given in full)
> 100 µM (inactive)
